tested_system: wild-type EGFR kinase (Homo sapiens)
Sequence (P00533 668-1210 limits assumed): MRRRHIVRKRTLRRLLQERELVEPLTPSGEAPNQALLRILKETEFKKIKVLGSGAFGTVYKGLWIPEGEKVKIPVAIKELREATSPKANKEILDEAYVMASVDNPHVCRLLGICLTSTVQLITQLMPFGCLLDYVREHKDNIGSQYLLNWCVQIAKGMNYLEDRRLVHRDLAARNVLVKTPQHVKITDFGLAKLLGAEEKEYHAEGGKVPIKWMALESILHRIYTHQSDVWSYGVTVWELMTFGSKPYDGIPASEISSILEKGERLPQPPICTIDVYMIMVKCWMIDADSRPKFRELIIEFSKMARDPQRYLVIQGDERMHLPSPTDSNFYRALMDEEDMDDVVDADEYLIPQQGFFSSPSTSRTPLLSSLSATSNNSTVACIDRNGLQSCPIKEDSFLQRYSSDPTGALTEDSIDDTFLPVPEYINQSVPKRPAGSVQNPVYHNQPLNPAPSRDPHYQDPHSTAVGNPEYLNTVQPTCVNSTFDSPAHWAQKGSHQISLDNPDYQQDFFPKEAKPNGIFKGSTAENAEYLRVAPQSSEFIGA
measurement_label: IC50 (µM)
Numeric only. Scale: µM

Request: May I ask what IC50 has been recorded for C=CC(=O)N1CCC[C@@H](Nc2nc(Nc3ccc(N4CCOCC4)cc3F)c3c(c2F)CNC3=O)C1 [Compound of formula X] ?
Response: 0.932

* * *

tested_system: βBTK Y223 (Homo sapiens)
Construct: endogenous in cells
Sequence (Q06187 whole entry): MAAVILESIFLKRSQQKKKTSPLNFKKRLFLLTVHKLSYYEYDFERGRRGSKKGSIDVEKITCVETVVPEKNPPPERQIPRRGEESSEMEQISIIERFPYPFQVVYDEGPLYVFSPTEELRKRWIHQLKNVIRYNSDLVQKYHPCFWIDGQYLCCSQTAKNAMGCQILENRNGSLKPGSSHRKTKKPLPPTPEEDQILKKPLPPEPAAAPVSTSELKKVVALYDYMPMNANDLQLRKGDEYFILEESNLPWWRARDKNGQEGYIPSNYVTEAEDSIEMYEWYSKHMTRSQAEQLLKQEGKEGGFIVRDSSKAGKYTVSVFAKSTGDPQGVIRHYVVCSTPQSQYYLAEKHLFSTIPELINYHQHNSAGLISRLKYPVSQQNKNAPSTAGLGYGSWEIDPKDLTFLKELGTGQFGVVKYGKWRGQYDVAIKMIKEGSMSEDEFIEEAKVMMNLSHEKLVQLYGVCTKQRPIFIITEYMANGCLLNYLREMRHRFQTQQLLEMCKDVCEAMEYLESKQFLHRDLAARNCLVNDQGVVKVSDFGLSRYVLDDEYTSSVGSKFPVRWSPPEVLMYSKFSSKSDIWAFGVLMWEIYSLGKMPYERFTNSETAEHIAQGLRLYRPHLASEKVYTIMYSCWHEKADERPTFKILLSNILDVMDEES
protocol: Intracellular βBTK Y223 phosphorylation HTRF detection in Ramos cells
measurement_context: sodium pervanadate
measurement_label: IC50 (nM)
Numeric only. Scale: nM

Request: Could you share what IC50 was measured for C=CC(=O)N1CCC[C@@H](Nc2nc(Nc3ccc(N4CCOCC4)cc3F)c3c(c2F)CNC3=O)C1 , tested on βBTK Y223 (Homo sapiens)?
Response: 3
